# System: SF-539 CNS
# method_description: NCI-60 one-dose screen, 48 h
# study_conditions: 10 µM
This is part of a sample that, as a whole, favours compounds with a hit. Of some 83,000 tested, about 20% had one in any assay. Activity calls are given as the source filed them. How the source made its calls: active means growth percent below 10; inactive means the rest.
Please state which outcome applies, choosing from active, inactive

Look over these answered cases.
# input Please let me know the test result on file for CC(C)(C)n1nc(C2CC2)c(Br)c1NC(=O)c1ccccc1F .
# output inactive

# input # repeat for O=C(O)c1cc([N+](=O)[O-])ccc1Cl
# output inactive

# input One more compound: Cc1cc(C)c(CC(=O)O)c(C)c1
# output inactive

# input Proceed to COc1ccc(C(=O)C(Br)C(Br)C(=O)O)cc1 (centres undefined)
# output inactive

# input Can you check Cc1nc2c(ccc3ccccc32)s1 next?
# output inactive

More entries:
# input For O=S(=O)(Cc1ccccc1)c1ccccc1 , what call appears in the results of this test?
# output inactive

# input Again, but for O=C1C=C(O)C(=O)C=C1O
# output inactive

# input Next entry: O=S(=O)(O)c1ccc(O)c2ccccc12
# output inactive

# input Likewise for c1cc2cccc3c4cccc5cccc(c(c1)c23)c54 ?
# output inactive

# input Same read-out for COc1cc([C@@H]2c3cc4c(cc3[C@H](O)[C@H]3COC(=O)[C@H]23)OCO4)cc(OC)c1OC ?
# output active

* * *

For each record, write down the corresponding growth.
# System: SK-OV-3 ovarian
# method_description: NCI-60 one-dose screen, 48 h (100 = growth as untreated, 0 = no growth, -100 = all killed)
# study_conditions: 10 µM
This is part of a sample that, as a whole, favours compounds with a hit. Of some 83,000 tested, about 20% had one in any assay.
Numbers only, in %.

# input What value of measured growth is listed for CCOC(=O)C(C#N)Cc1ccccc1 (stereo not drawn) ?
# output 123

# input Another: COc1ccc(C2OC(N)=C(O)C2=O)cc1OC (stereo not drawn)
# output 99.5

# input Here is the next compound: O=[N+]([O-])c1ccc(N=Nc2ccccc2)cc1
# output 113

Please state growth for every compound in the list that follows.
1. O=C(N/N=C\c1cc(Br)cc(Br)c1O)N/N=C/c1cc(Br)cc(Br)c1O
2. NC(=O)N/N=C\c1ccco1

# output
1. 79.7
2. 102

Here are 4 compounds. What values of growth were reported for them?
1. CN1C(=O)CN2CCc3ccccc3C2c2cc(Cl)ccc21 (stereo not drawn)
2. CC(C(=O)O)(C1CCCCC1)C1(O)CCCCC1 (stereo not drawn)
3. O=C1C=C(O)C(=O)C=C1O
4. O=C(NN=C1CCCCC1)C(=O)NN=C1CCCCC1

# output
[90.7, 101, 87.9, 101]

For every item in the list below, what is its measured growth?
1. CC(C)=NNc1ccc([N+](=O)[O-])cc1[N+](=O)[O-]
2. CC(=O)Nc1cccc(Cl)c1C
3. Nc1ccc(N=Nc2ccc(O)cc2)c(N)n1
4. Cc1cc2nc(CC(=O)c3ccccc3)c(=O)[nH]c2cc1C

# output
1. 92.9
2. 101
3. 97.3
4. 102

* * *

Would you kindly list growth for each of these compounds?
# Tested on: SNB-75 CNS
# method_description: NCI-60 one-dose screen, 48 h (100 = growth as untreated, 0 = no growth, -100 = all killed)
# study_conditions: 10 µM
The panel holds about 83,000 compounds, 20% with a hit somewhere; the sample as a whole holds those more often.
Answers are plain numbers, in %.

# input For O=[N+]([O-])c1ccc(N=Nc2ccc(O)c3ccccc23)cc1 , what is its reported growth?
# output 68.8

# input Another compound: NC(=S)N/N=C/c1ccc(N)cc1
# output 96.1

# input Another compound: CCOC(=O)c1ccc(Nc2sc(C(=O)c3cccc([N+](=O)[O-])c3)c(N)c2C#N)cc1
# output -6.96

# input Entry CN(C)c1ccc2nc3ccc(=N)cc-3sc2c1 please
# output 22.3

# input Follow-up entry: O=C(NCCNC(=O)c1ccc(Cl)cc1Cl)c1ccc(Cl)cc1Cl
# output 102

# input Let us now turn to O=S(=O)(O)c1ccc(O)c2ccccc12
# output 88.1

# input Another compound: S=c1[nH]ccn1-c1ccccc1Cl
# output 95.4

# input How about this compound: CCCCC1C(=O)N(c2ccccc2)N(c2ccccc2)C1=O
# output 117

# per-item lookup of growth; items listed below
1. CSC[C@H](NC(=O)COc1cccc2cnccc12)C(=O)NC(Cc1ccccc1)C(O)C(=O)N1CSC[C@H]1C(=O)NC(C)(C)C (some centres not stated)
2. CN(C)c1ccc(C(c2ccc(O)cc2)c2ccc(N(C)C)cc2)cc1
3. C=CCNC(=O)c1ccc(OC)cc1
4. C/C(O)=C(\C=N\C(N)=S)C(=O)Nc1ccccc1
5. N/N=C(/Cc1ccccc1)NNC(N)=S
6. CC(=O)Nc1ccc(NC(C)=O)c2c1C(=O)c1ccccc1C2=O
7. NCCCN
8. Cc1cc(OCCO)cc(C)c1Cl

# output
1. -20.5
2. 87.3
3. 117
4. 88.1
5. 87.7
6. 85.9
7. 79.8
8. 124

Quick one: give me growth for each item below, same order please.
1. COCCCNC(=O)c1nnn2c1nc(N)c1cc(Cl)ccc12
2. c1ccc2c(N3CCCCC3)ncnc2c1
3. COc1cccc(Sc2ccc([N+](=O)[O-])c3no[n+]([O-])c23)c1
4. O=C1C=CC(=O)N1c1ccc(I)cc1Cl

# output
1: 70.6; 2: 140; 3: 31.8; 4: 103

Would you be so kind as to report growth for each listed record?
1. O=C(N/N=C/c1ccccc1O)Nc1nn[nH]n1
2. CC1SC(N)=NC1=O (configuration not stated)
3. C#Cc1cccc(NC(=O)c2ccc(Cl)cc2Cl)c1
4. Cc1cc(=O)[nH]c(NN=C2CCCC2)n1
5. c1ccc(Sc2ccccc2)cc1
6. CNC(=O)c1ccccc1CC1(O)c2ccccc2Oc2ccccc21
7. CC(=O)C1CCCCC1

# output
1: 85.7; 2: 103; 3: 106; 4: 89.1; 5: 99.7; 6: 58.3; 7: 87.1

* * *

# Test system: NCI-H460 lung
# method_description: NCI-60 one-dose screen, 48 h (100 = growth as untreated, 0 = no growth, -100 = all killed)
# study_conditions: 10 µM
Compounds without any hit were thinned out: in the full panel of roughly 83,000, 20% have a hit.
Would you kindly list growth for each of these compounds?
One number for each entry, in %.

# input Can you look up the measured growth of O=c1[nH]n(-c2ccccc2)c(=O)cc1Cl for me?
# output 109

# input Thanks! And O=C(Cc1ccccc1)Cc1ccccc1 ?
# output 102

# input Do the same for NC(N)=Nc1cc2ccccc2c2ccccc12 please
# output 86.8

# input Lookup Cc1cc2nc(CC(=O)c3ccccc3)c(=O)[nH]c2cc1C
# output 97.9

Lab note: each compound below needs its growth filled in.
1. CCC(C)(O)c1ccc(C)cc1 (centres undefined)
2. CC1Cc2ccccc2O1 (centres undefined)

# output
105
109

Go through the items and report each one's growth.
1. CCc1ccc(/C(C#N)=C/C=C/c2ccccc2)cc1
2. C=CC[N+](C)(C)C
3. CCOC(=O)C/C(C)=N\O
4. O=C(O)C(O)c1ccccc1 (centres undefined)

# output
1: 13.7; 2: 104; 3: 106; 4: 107

Please supply growth for each of the following items, keeping them in order.
1. COC(=O)c1cccnc1
2. CC(C)(N)COS(=O)(=O)O

# output
1. 105
2. 103

Would you mind giving growth for every compound in the list below?
1. O=C1OC(=O)C2C1C1(Cl)C(Cl)=C(Cl)C2(Cl)C2C(=O)OC(=O)C21 (centres undefined)
2. CC(=O)c1ccc(C)c(N)c1
3. COCCOCCCl
4. CC(C)=NNc1ccc([N+](=O)[O-])cc1[N+](=O)[O-]
5. O=S(=O)(O)c1ccc(Cl)c(Cl)c1
6. O=S(=O)(Cc1ccccc1)c1ccccc1

# output
107
111
104
88.1
110
112

* * *

# Tested on: M14 melanoma
# method_description: NCI-60 one-dose screen, 48 h
# study_conditions: 10 µM
The panel holds about 83,000 compounds, 20% with a hit somewhere; the sample as a whole holds those more often. Calls of active or inactive are those of the source. Rule for the calls: active = growth percent below 10; inactive = the rest.
Pick from active, inactive when you respond.

# input Dear all, I need the recorded test outcome for CCOC(=O)C1=C(C)NC(=O)NC1c1cccs1 (stereo unspecified) , thank you.
# output inactive

More entries:
# input Short answer needed: outcome of this test for N/N=C(/Cc1ccccc1)NNC(N)=S ?
# output inactive

# input Next record, please: Cc1cc(N)ccc1-c1ccc(N)cc1C
# output inactive

# input Continue with COC(=O)c1ccc(C(C)C)cc1
# output inactive

# input Try the compound O=S(=O)(O)c1ccc(O)c2ccccc12
# output inactive

# input // query: CC1(C(=O)O)NC(C(=O)O)Cc2c1[nH]c1ccccc21 (stereo unspecified)
# output inactive

# input Now try CCCCC/C=N/Nc1nc(C)cc(=O)[nH]1 .
# output inactive

# input And O=C(CC(=O)c1ccccc1O)c1ccccc1 ?
# output inactive

# input Repeat for the following compound: CC(C)(C)c1cc(O)c(C(C)(C)C)cc1O
# output inactive

# input And then CCn1c(=O)n(C)c2c(=O)n(C)c(=O)n(C)c21 , what is it?
# output inactive

# input Note, next up: CCOC(=O)CNN
# output inactive

# input Also check CN(C)CCN(C)CC(C)(C)C(=O)/C=C/c1ccc(Cl)cc1
# output active

# input What about COC(=O)/C=C/C(=O)NC(N)=O ?
# output inactive

# input Repeat for the following compound: C=C1CC/C=C(\C)C(=O)C[C@@H]2[C@@H]1CC2(C)C
# output inactive

# input And then COc1ccc(C)cc1OC , what is it?
# output inactive

# input // repeat for COc1ccc2c(NCCCCCCCCNc3c4ccccc4nc4cc(OC)ccc34)c3ccccc3nc2c1 and report
# output active

# input Proceed to CCN(CC)c1ccc2nc3ccc(=[N+](CC)CC)cc-3oc2c1
# output active

# input Again, but for C/C=C/CC(C)C(O)C1C(=O)NC(CC)C(=O)N(C)CC(=O)N(C)C(CC(C)C)C(=O)NC(C(C)C)C(=O)N(C)C(CC(C)C)C(=O)NC(C)C(=O)NC(C)C(=O)N(C)C(CC(C)C)C(=O)N(C)C(CC(C)C)C(=O)N(C)C(C(C)C)C(=O)N1C (stereo unspecified)
# output active

# input Then this compound: COc1cc(CN)ccc1O
# output inactive

# input Now the same for CC(C)CCCC(=O)O
# output inactive
